# assayed_system: Cytochrome P450 3A4 (Homo sapiens)
# Sequence (P08684 whole entry): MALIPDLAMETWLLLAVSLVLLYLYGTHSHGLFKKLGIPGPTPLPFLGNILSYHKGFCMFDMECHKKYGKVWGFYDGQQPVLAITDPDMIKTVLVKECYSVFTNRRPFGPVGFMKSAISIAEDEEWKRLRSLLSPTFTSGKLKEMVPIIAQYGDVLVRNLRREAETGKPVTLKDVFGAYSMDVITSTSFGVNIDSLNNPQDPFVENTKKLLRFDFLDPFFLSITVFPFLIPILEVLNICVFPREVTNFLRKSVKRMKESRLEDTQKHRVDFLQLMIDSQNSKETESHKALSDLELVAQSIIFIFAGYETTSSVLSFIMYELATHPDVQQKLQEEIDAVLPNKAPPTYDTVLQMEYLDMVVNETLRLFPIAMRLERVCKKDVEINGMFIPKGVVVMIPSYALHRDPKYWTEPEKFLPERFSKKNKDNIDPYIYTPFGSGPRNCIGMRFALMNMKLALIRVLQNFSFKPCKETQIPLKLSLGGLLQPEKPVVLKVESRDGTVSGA
# procedure_details: Inhibition of CYP3A4
# Assay type: ADME
# test_conditions: read-out: IC50
pIC50: −log10 of the molar value.
compounds and their reported pIC50

smiles_string: CC(C)N1CCN(C(=O)Cn2c(-c3ccoc3)c(C3CCCCC3)c3ccc(C(=O)O)cc32)CC1
property: pIC50
observed: ≤ 5.10

input: Identify measured pIC50 corresponding to CCN1CCN(C(=O)Cn2c(-c3ccoc3)c(C3CCCCC3)c3ccc(C(=O)O)cc32)CC1
output: ≤ 4.80

* * *

Examples of compounds with documented log10 of solubility thermodynamic at 24 h follow.
# procedure_details: Equilibrium solubility at pH 7.2 with amorphous solid after 24 hrs by shake flask method
# Format: physicochemical
# test_conditions: buffer
Values reflect log10 of reported solubility thermodynamic at 24 h (mg/mL).

Before answering, review these 6 worked examples.
smiles_string: CN(CCO)C(=O)Cn1c(-c2ccoc2)c(C2CCCCC2)c2ccc(C(=O)O)cc21
observed: 0.11
--
smiles_string: CCN1CCN(C(=O)Cn2c(-c3ccoc3)c(C3CCCCC3)c3ccc(C(=O)O)cc32)CC1
observed: -1.92
--
smiles_string: CC(C)N1CCN(C(=O)Cn2c(-c3ccoc3)c(C3CCCCC3)c3ccc(C(=O)O)cc32)CC1
observed: -1.74
--
smiles_string: CN1CCN(C(=O)Cn2c(-c3ccoc3)c(C3CCCCC3)c3ccc(C(=O)O)cc32)CC1
observed: -2.15
--
smiles_string: O=C(O)c1ccc2c(C3CCCCC3)c(-c3ccoc3)n(CC(=O)N3CCC(N4CCCC4)CC3)c2c1
observed: -1.10
--
smiles_string: CN1CCC(N(C)C(=O)Cn2c(-c3ccoc3)c(C3CCCCC3)c3ccc(C(=O)O)cc32)CC1
observed: -0.54

input: Consider the compound O=C(O)c1ccc2c(C3CCCCC3)c(-c3cccs3)n(CC(=O)N3CCC(N4CCCC4)CC3)c2c1 and give its recorded log10 of solubility thermodynamic at 24 h.
output: -1.22

input: Provide log10 of solubility thermodynamic at 24 h value for the following compound: O=C(O)c1ccc2c(C3CCCCC3)c(-c3ccccc3)n(CC(=O)N3CCC(N4CCCC4)CC3)c2c1
output: -1.33

input: Item O=C(O)c1ccc2c(C3CCCCC3)c(-c3ccoc3)n(CC(=O)N3CCOCC3)c2c1 : provide log10 of solubility thermodynamic at 24 h
output: -0.98

input: Provide one value: measured log10 of solubility thermodynamic at 24 h of CN(C)C(=O)Cn1c(-c2ccoc2)c(C2CCCCC2)c2ccc(C(=O)O)cc21
output: -0.62

* * *

# Test system: Hepatitis C virus
# procedure_details: Antiviral activity against Hepatitis C virus subtype 1b infected in human Huh7 cells assessed as inhibition of viral RNA replication
# Type: functional, organism-based, Hepacivirus hominis, genotype 1b, Huh-7
# test_conditions: Hepatitis C virus, genotype 1b, Huh-7; read-out: EC50
property: pEC50
Friendly reminder that pEC50 comes from taking -log10 of the concentration in mol/L.

Some solved entries appear below for comparison.
smiles_string: O=C(O)c1ccc2c(C3CCCCC3)c(-c3ccsc3)n(CC(=O)N3CCOCC3)c2c1
observed: 6.48

smiles_string: O=C(O)c1ccc2c(C3CCCCC3)c(-c3cccs3)n(CC(=O)N3CCOCC3)c2c1
observed: 6.22

smiles_string: O=C(O)c1ccc2c(C3CCCCC3)c(-c3ccoc3)n(CC(=O)N3CCCCC3)c2c1
observed: 6.09

smiles_string: CN(C)C(=O)Cn1c(-c2cccs2)c(C2CCCCC2)c2ccc(C(=O)O)cc21
observed: 6.22

smiles_string: CN1CCC(N(C)C(=O)Cn2c(-c3ccoc3)c(C3CCCCC3)c3ccc(C(=O)O)cc32)CC1
observed: 6.89

smiles_string: CN(C)CCCN(C)C(=O)Cn1c(-c2ccoc2)c(C2CCCCC2)c2ccc(C(=O)O)cc21
observed: 6.24

smiles_string: O=C(O)c1ccc2c(C3CCCCC3)c(-c3ccoc3)n(CC(=O)N3CCC(N4CCCCC4)CC3)c2c1
observed: 6.11

smiles_string: O=C(O)c1ccc2c(C3CCCCC3)c(-c3ccco3)n(CC(=O)N3CCC(N4CCCC4)CC3)c2c1
observed: 5.92

Consider the additional molecule presented here.
input: Enter measured pEC50, system Hepatitis C virus, for the molecule shown: O=C(O)c1ccc2c(C3CCCCC3)c(-c3ccccc3)n(CC(=O)N3CCC(N4CCCC4)CC3)c2c1
output: 6.42

* * *

# System: Hepatitis C virus
# procedure_details: Antiviral activity against Hepatitis C virus subtype 1b infected in human Huh7 cells assessed as inhibition of viral RNA replication
# Format: functional, organism-based, Hepacivirus hominis, genotype 1b, Huh-7
# test_conditions: Hepatitis C virus, genotype 1b, Huh-7; read-out: EC50
property: EC50 (nM)
Could you give me the number in nM? Just the number is fine.

Consider the following illustrative entries.
smiles_string: O=C(O)c1ccc2c(C3CCCCC3)c(-c3ccsc3)n(CC(=O)N3CCC(N4CCCC4)CC3)c2c1
EC50, nM: 1000
--
smiles_string: CN(C)C(=O)Cn1c(-c2ccsc2)c(C2CCCCC2)c2ccc(C(=O)O)cc21
EC50, nM: 640
--
smiles_string: CCN1CCN(C(=O)Cn2c(-c3ccoc3)c(C3CCCCC3)c3ccc(C(=O)O)cc32)CC1
EC50, nM: 410
--
smiles_string: CCOC(=O)Cn1c(-c2ccoc2)c(C2CCCCC2)c2ccc(C(=O)O)cc21
EC50, nM: 8500

input: Output EC50 of CN(C)C(=O)Cn1c(-c2ccoc2)c(C2CCCCC2)c2ccc(C(=O)O)cc21
output: 800

* * *

# procedure_details: Permeability from apical to basolateral side of the human Caco-2 cells at pH 7.4
# Type: ADME, cell-based
# test_conditions: Caco-2, pH 7.4, read-out: permeability
Papp A→B listing for selected molecules.
Expressed in ×10⁻⁶ cm/s, but write only the number.

Take a look at these entries with their results.
smiles_string: CC(C)N1CCN(C(=O)Cn2c(-c3ccoc3)c(C3CCCCC3)c3ccc(C(=O)O)cc32)CC1
property: Papp A→B
unit_spec: ×10⁻⁶ cm/s
observed: 7
--
smiles_string: CN(C)C(=O)Cn1c(-c2ccoc2)c(C2CCCCC2)c2ccc(C(=O)O)cc21
property: Papp A→B
unit_spec: ×10⁻⁶ cm/s
observed: 12.8
--
smiles_string: CN1CCN(C(=O)Cn2c(-c3ccoc3)c(C3CCCCC3)c3ccc(C(=O)O)cc32)CC1
property: Papp A→B
unit_spec: ×10⁻⁶ cm/s
observed: 1.7
--
smiles_string: O=C(O)c1ccc2c(C3CCCCC3)c(-c3ccoc3)n(CC(=O)N3CCOCC3)c2c1
property: Papp A→B
unit_spec: ×10⁻⁶ cm/s
observed: 5.2

Now examine the next entry.
input: Give the measured Papp A→B for O=C(O)c1ccc2c(C3CCCCC3)c(-c3cccs3)n(CC(=O)N3CCC(N4CCCC4)CC3)c2c1
output: 0.2

* * *

# procedure_details: Half life in human liver microsomes at 2 uM
# Assay type: ADME, Microsome
property: half-life at 2 µM (h)
Unit h implied. Number only.

These recorded examples may help you get a feel for the data.
smiles_string: O=C(O)c1ccc2c(C3CCCCC3)c(-c3ccccc3)n(CC(=O)N3CCC(N4CCCC4)CC3)c2c1
unit_spec: h
observed: 1.85
--
smiles_string: CN(C)C(=O)Cn1c(-c2ccoc2)c(C2CCCCC2)c2ccc(C(=O)O)cc21
unit_spec: h
observed: 4.17
--
smiles_string: CN1CCN(C(=O)Cn2c(-c3ccoc3)c(C3CCCCC3)c3ccc(C(=O)O)cc32)CC1
unit_spec: h
observed: 1.17

Now consider a different compound.
input: Answer with the recorded half-life at 2 µM for the compound listed here: CN(CCO)C(=O)Cn1c(-c2ccoc2)c(C2CCCCC2)c2ccc(C(=O)O)cc21
output: 4.58

* * *

# Test system: Hepatitis C virus
# procedure_details: Antiviral activity against Hepatitis C virus subtype 1b infected in human Huh7 cells assessed as inhibition of viral RNA replication
# Assay type: functional, organism-based, Hepacivirus hominis, genotype 1b, Huh-7
# test_conditions: Hepatitis C virus, genotype 1b, Huh-7; read-out: EC50
property: EC50 (nM)
# value in nM; strip the unit string

Use the examples below as a reference point.
smiles_string: O=C(O)c1ccc2c(C3CCCCC3)c(-c3ccccc3)n(CC(=O)N3CCOCC3)c2c1
observed: 700
//
smiles_string: CC(C)N(C)C(=O)Cn1c(-c2ccoc2)c(C2CCCCC2)c2ccc(C(=O)O)cc21
observed: 800
//
smiles_string: O=C(O)c1ccc2c(C3CCCCC3)c(-c3ccoc3)n(CC(=O)N3CCOCC3)c2c1
observed: 600

input: Give Hepatitis C virus EC50 for the following compound: O=C(O)c1ccc2c(C3CCCCC3)c(-c3cnccn3)n(CC(=O)N3CCC(N4CCCC4)CC3)c2c1
output: 10000

input: Specify EC50 for O=C(O)c1ccc2c(C3CCCCC3)c(-c3cc4ccccc4s3)n(CC(=O)N3CCOCC3)c2c1 , system Hepatitis C virus.
output: 1100

input: Report EC50 under test system Hepatitis C virus for COCCN(C)C(=O)Cn1c(-c2ccoc2)c(C2CCCCC2)c2ccc(C(=O)O)cc21 .
output: 1300
